# System: TO-N3 (biotin conjugate)
# Assay Overview: pull-down binding Z-score (relative to library population); higher = stronger binding
# Particulars: RNA library: Library-2
# cutoff -0.06 applies to pull-down binding Z-score; >= gives T, < gives F

Incoming: # check: pull-down binding Z-score of GACGUGAAGGGACCACAUCCCGCUUCAUGUC [hsa-mir-4697] is greater than or equal to -0.06
Outgoing: T

Incoming: # check: pull-down binding Z-score of CAGACCAUGCCACAUCCGUCUG [hsa-mir-7152] is greater than or equal to -0.06
Outgoing: F

Incoming: # check: pull-down binding Z-score of UGUCAUUACUUUCAAUGGCA [hsa-mir-548h-2] is greater than or equal to -0.06
Outgoing: F

Incoming: # check: pull-down binding Z-score of UGGCUGUAGGGCAGCAGUCA [hsa-mir-8079] is greater than or equal to -0.06
Outgoing: T

Incoming: # check: pull-down binding Z-score of UGCUGUGAGCUAGCCAGCAG [hsa-mir-5693] is greater than or equal to -0.06
Outgoing: T

Incoming: # check: pull-down binding Z-score of GUUAUGUUGAUACACCUAAU [DMSMaPseq_invitro_SARS-CoV-2_Motif_328] is greater than or equal to -0.06
Outgoing: F

Incoming: # check: pull-down binding Z-score of ACAGGAGUCACCUUUUGU [SHAPE_invitro_SARS-CoV-2_Motif_112] is greater than or equal to -0.06
Outgoing: F

Incoming: # check: pull-down binding Z-score of UUCUGUUGUCUGAAAGAAAAGAA [hsa-mir-1283-2] is greater than or equal to -0.06
Outgoing: F

Incoming: # check: pull-down binding Z-score of CAUUACUUUAUGAUG [SHAPE_invitro_SARS-CoV-2_Motif_468] is greater than or equal to -0.06
Outgoing: T

Incoming: # check: pull-down binding Z-score of CAGGCCAGGGGCAGACAGUGGACAGAGAACAGUGCCCAAGACCACUG [hsa-mir-378e] is greater than or equal to -0.06
Outgoing: T

---

# Tested on: TO-3-N3-2 (biotin conjugate)
# Assay Overview: pull-down binding Z-score (relative to library population); higher = stronger binding
# Particulars: RNA library: Library-2
I'd be grateful if you could share measured pull-down binding Z-score for these entries.

Incoming: Which pull-down binding Z-score value belongs to CUGGGUUCUUAGAGGCCUAAUCCUCUACAAACUCAGUUU [hsa-mir-4305] ?
Outgoing: -0.258

Incoming: Which pull-down binding Z-score value belongs to UGAGGAGCUUAGCAAGUAGCUAAGGCCAGA [hsa-mir-4517] ?
Outgoing: -0.393

Incoming: Which pull-down binding Z-score value belongs to ACAAGUUGCAAUUUACAAGUCUUGAAAUUCCACGUAGGAAUGUGGCAACUUUACAAGCUGAAAAUGUAACAGGACUCUUUAAAGAUUGU ?
Outgoing: 0.247

Incoming: Which pull-down binding Z-score value belongs to GGGUGAGAGUGCUUUCUGAAUGCAGUGCACCC [hsa-mir-500b] ?
Outgoing: 0.131

Incoming: Which pull-down binding Z-score value belongs to GAGGUGAUGCAGAUACUUACCUG [U1snRNP5ss-20] ?
Outgoing: 0.169

Incoming: Which pull-down binding Z-score value belongs to GUUCUCUAUGAGAAC ?
Outgoing: -0.504

Incoming: Which pull-down binding Z-score value belongs to ACAUAGCAGUGGUGUUACCCGUGAACUCAUGCGUGAGCUUAACGGAGGGGCAUACACUCGCUAUGU ?
Outgoing: -0.167

Incoming: Which pull-down binding Z-score value belongs to UUCUCCUUGGGAAAAACAGAGAA [hsa-mir-605] ?
Outgoing: -0.016

Incoming: Which pull-down binding Z-score value belongs to GACCCUAAGACUAAAAAUGUUACAAAAGAAAAUGACUCUAAAGAGGGUUUUUUCACUUACAUUUGUGGGUU ?
Outgoing: 0.101

Incoming: Which pull-down binding Z-score value belongs to CACUGUACAGUCUAAAAUGUCAGAUGUAAAGUG [DMSMaPseq_invitro_SARS-CoV-2_Motif_208] ?
Outgoing: -0.0983
